Tested on: CCRIS mutagenicity, Ames/micronucleus/aberration tests
Test: CCRIS mutagenicity studies
Conditions: Test System: AMES SALMONELLA TYPHIMURIUM; Strain/Indicator: TA104; Metabolic Activation: RAT LIVER S-9, PHENOBARBITAL AND BETA-NAPHTHOFLAVONE; Method: PREINCUBATION
Excerpt: The CCRIS database contains chemical records with carcinogenicity, mutagenicity, tumor promotion, and tumor inhibition test results. It was developed by the National Cancer Institute (NCI). Data are derived from studies cited in primary journals, current awareness tools, NCI reports, and other sources. Test results have been reviewed by experts in carcinogenesis and mutagenesis. CCRIS provides historical information from the years 1985 - 2011. It is no longer updated. […]
The source made the active and inactive calls. The rule behind the calls is not given here.
The categories you may choose from are yes for active, no for inactive

Query: For this compound, state the assay outcome: "C=C1CC(=O)O1"
Reply: no

Query: For this compound, state the assay outcome: "O=S(O)CO"
Reply: no

Query: For this compound, state the assay outcome: "ClCc1ccc(Cl)cc1"
Reply: no

Query: For this compound, state the assay outcome: "NCCCN1CCN(CCCN)CC1"
Reply: no

Query: For this compound, state the assay outcome: "CN(C)N"
Reply: no

Query: For this compound, state the assay outcome: "CCCCCCCCBr"
Reply: no

Query: For this compound, state the assay outcome: "COc1ccc(N)cc1"
Reply: no

Query: For this compound, state the assay outcome: "CCNNCC"
Reply: no

Query: For this compound, state the assay outcome: "CCOC(=O)CBr"
Reply: yes

This collection of values is drawn from PubChem BioAssay AID1259407.
